# TARGET OR TEST SYSTEM: T1, AAV8
# T1 construct: also called adeno-associated virus serotype 8
# PROTOCOL DETAILS: SPR, AAV on CM5 chip;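 also: surface plasmon resonance with AAV amine-coupled to the chip as ligand, nanobodies injected as analyte over a concentration series, rate constants and affinity fitted from binding curves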
PROPERTY MEASURED: kon (M⁻¹ s⁻¹)
Answer with a number only, understood to be in M⁻¹ s⁻¹.

Ask: Give the value of kon reported for the following: A4-008 (VHH) VHH: VQLQESGGGLVQAGGSLRLSCAASGRAFSINTMGWYRQAPPKQRELVATVTRGGSTNYAGSVKGRFTISRDNAKNTIYLQMNSLRPEDTAVYYCHVDEVRQSSWTTSNIWGQGTQVTVSS
Reply: 3140

Ask: Entry A4-043 (VHH) VHH: VQLQESGGGLVQPGGSLRLSCAASGRAFSINTMGWYRQAPGKQRELVATVTRDGSTNYAGSVKGRFTISRDNAKNTVYLQMNSLRPEDTAVYYCHVDEVRQSSWTTSNLWGQGTQVTVSS needs its kon filled in; supply it.
Reply: 191000

Ask: Identify measured kon corresponding to A4-022 (VHH) VHH: VQLQESGGGLVQPGGSLRLSCAASGSGFSINTMGWYRQAPGKQRELVATVTRDGSTNYADFVKGRFTISRDNAKNTVYLQMNSLRPEDTAVYYCHLDEVRESSWTTSNLWGQGTQVTVSS
Reply: 52100

Ask: Check the records and state kon for A4-015 (VHH) VHH: VQLQESGGGLVQPGGSLRLSCAASGSIFSINLMGWYRQAAGKQRELVATITPGGNTNYAGSVKGRFTISRDNAKNTVYLQMNSLRPEDTAVYYCHVDEVRQSSWTTSNLWGQGTQVTVSS
Reply: 174000

Ask: Give the value of kon reported for the following: A4-023 (VHH) VHH: VQLQESGGGLVQPGGSLRLSCAASGSAFSINTMGWYRQAPGKQRELVASVTPGGSTNYADSVKGRFTISRDNAKNTIYLQMNSLRPEDTAVYYCHLDEVRESSWTTSNLWGQGTQVTVSS
Reply: 8730

Ask: Look up kon of A4-030 (VHH) VHH: VQLQESGGGLVQPGGSLRLSCAASGSSFTINTMGWYRQAPGKQRELVAAVTRGGSTNYAGSVKGRFTISRDNAKNTIYLQMNSLRPEDTAVYYCHVDEIRQSSWTTSNLWGQGTQVTVSS and report it.
Reply: 7780

Ask: Give the reported value of kon for this record: A4-016 (VHH) VHH: VQLQESGGGLVQPGGSLRLSCAASGSIFSINLMGWYRQAPGKQRELVATITPGGNTNYAGSVKGRFTISRDNAKNTVYLQMNSLRPEDTAVYYCHVDEVRQSSWTTSNLWGQGTQVTVSS
Reply: 152000

Ask: Let me know recorded kon for A4-033 (VHH) VHH: VQLQESGGGLVQPGGSLRLSCVASGSSFSINTMGWYRRAPGKQRELVATVTRDGSTNYANSVKGRFTISRDNAKNTVYLQMNSLRPEDTAVYYCHVDEVRQSSWTTSNLWGQGTQVTVSS , thanks.
Reply: 3810

Ask: For the binder A4-049 (VHH) VHH: VQLQESGGGLVQPGGSLRLSCAASGSMFSINTMGWYRQAPGKQRELVAAVTRGGNTNYAGSVKGRFTISRDNAKNTVYLQMNSLRPEDTAVYYCHVDEVRQSSWTTSNLWGQGTQVTVSS , report kon.
Reply: 26900

Ask: Quick one: give measured kon for A4-026 (VHH) VHH: VQLQESGGGLVQPGGSLRLSCAASGSNFRINTMGWYRQAPGKQRELVAPVTRGGSTNYADSVKGRFTISRDNAKNTVYLQMNSLRPEDTAVYYCHVDEVRESSWTTSNLWGQGTQVTVSS
Reply: 67700
